# Test system: Escherichia coli
# test details: Anti-microbial activity assay, MIC by broth microdilution
# Type: cell-based
# conditions used: Escherichia coli; strain UB1005; read-out: MIC Escherichia coli UB1005
readout kind: MIC (µg/mL)
Note: unit µg/mL is implicit; provide only the numeric part.

COc1ccc2ncc(OCCCN3CCC(CNC(=O)c4cc5c(cc4Cl)SCCN5)C3)nc2c1 (centres unmarked) [Example 27] | 16
COc1cnc2ccc(OCCN3CCC(NC(=O)c4cc5c(cc4Cl)SCC(=O)N5)CC3)nc2c1 [Example 19] | 4

Field: next compound
Query: Can you share its MIC? I mean this compound: COc1ccc2ncc(SCCN3CCC(NC(=O)c4cc5c(cc4Cl)SCC(=O)N5)CC3)cc2c1 [Example 54]
Response: 4
